Read-out: Actin alpha 1 (ACTA1), ACTA1 (gene 58)
assay.notes: BSK_MyoF_ACTA1: BioMAP Diversity Plus: MyoF Assay for Actin alpha 1 (ACTA1) Biomarker Activity (AID 2284244)
condition: primary human lung fibroblasts
Activity calls are given as the source filed them. How the source made its calls: active means hit-call score of the fitted dose curve at least 0.9, where 1 is the maximum; inactive means score below 0.9.
# output must be one of active, inactive

O=S(=O)(O)C(F)(F)C(F)(F)OC(F)(F)C(F)(F)F    inactive
Nc1ccc(N)c([N+](=O)[O-])c1    inactive
CC(=O)CCC=C(C)CCC=C(C)C    inactive
CC(=O)OCC=C(C)CCC=C(C)CCC=C(C)C    inactive
C=CC(=O)OCC(CO)(COC(=O)C=C)COC(=O)C=C    active
OCCN1CCOCC1    inactive
c1ccc2c(c1)-c1ccc3ccc4cccc5cc-2c1c3c45    inactive
CCCCCCCCCC(=O)OCC    active

## Task What is the recorded call for this compound in the test? CCCCCCCCCCCCS
## Result active

## Task What is the recorded call for this compound in the test? c1ccc(Sc2ccccc2)cc1
## Result active

## Task What is the recorded call for this compound in the test? COc1ccccc1NC(=O)CC(C)=O
## Result inactive

Reference source for all entries: PubChem BioAssay (EPA / NIEHS)
